Please respond with reported melting point for every item in the list.

> print(dat)
                                 smiles.str         metric  value.reported
1  CCc1cc(CC)c(-c2c(O)c(C)nn(C)c2=O)c(CC)c1Br  melting point   225 to 226 °C

# batch size: 4; output melting point per entry
1. C#Cc1cc(C)cc(C)c1-c1c(O)c(C)nn(C)c1=O
2. CCc1cc(C)c(Br)c(CC)c1-c1c(O)c(C)nn(C)c1=O
3. CCc1cc(C)c(-c2ccc(Cl)cc2)c(CC)c1-c1c(O)c(C)nn(C)c1=O
4. CCc1c(Cl)c(CC)c(-c2c(O)c(C)nn(C)c2=O)c(CC)c1Cl

Response:
179 to 181 °C
235 to 236 °C
248 to 250 °C
266 to 267 °C
